Answer each item with its documented Degradation rate (%) of ERα in MCF-7 cells.
# TARGET_UNDER_TEST: ERα (Homo sapiens, UniProt P03372)
# Sequence (P03372 1-595): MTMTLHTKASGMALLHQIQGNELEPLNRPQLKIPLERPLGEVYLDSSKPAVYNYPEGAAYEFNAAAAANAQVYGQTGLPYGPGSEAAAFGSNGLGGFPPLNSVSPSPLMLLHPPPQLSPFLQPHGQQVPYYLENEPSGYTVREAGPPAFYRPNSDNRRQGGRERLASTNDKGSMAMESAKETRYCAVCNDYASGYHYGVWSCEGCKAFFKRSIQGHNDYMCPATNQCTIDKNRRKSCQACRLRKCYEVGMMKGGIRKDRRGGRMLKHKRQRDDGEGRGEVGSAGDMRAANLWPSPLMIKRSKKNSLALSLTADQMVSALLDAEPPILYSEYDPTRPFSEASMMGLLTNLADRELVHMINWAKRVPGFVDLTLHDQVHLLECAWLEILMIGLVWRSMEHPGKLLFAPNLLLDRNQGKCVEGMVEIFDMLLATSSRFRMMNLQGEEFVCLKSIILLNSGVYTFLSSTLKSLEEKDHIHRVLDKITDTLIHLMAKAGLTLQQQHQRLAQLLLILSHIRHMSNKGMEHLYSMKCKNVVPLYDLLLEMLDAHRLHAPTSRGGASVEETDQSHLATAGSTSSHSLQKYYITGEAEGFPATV
# TEST_PROTOCOL: Degradation of ERα in MCF-7 cells (immunoblotting, 4 h)
# Type: cell-based
# ASSAY_CONTEXT: 1nM compound
Numbers only, in %.

Here is how some compounds turned out for Degradation rate (%) of ERα in MCF-7 cells.
COMPOUND: O=C1CCC(N2Cc3cc4c(cc3C2=O)CCC2(CN(C(=O)[C@H]3CC[C@H](CN5CCN(c6ccc([C@@H]7c8ccc(O)cc8CC[C@@H]7c7ccccc7)cc6)CC5)CC3)C2)O4)C(=O)N1 (stereo partly shown)
VALUE_UNITS: %
VALUE_REPORTED: 38
//
COMPOUND: O=C1CCC(N2C(=O)c3ccc4c(c3C2=O)OCC42CCN(C3CCC4(CC3)CCN(c3ccc([C@@H]5c6ccc(O)cc6CC[C@@H]5c5ccccc5)cc3)CC4)CC2)C(=O)N1 (stereo partly shown)
VALUE_UNITS: %
VALUE_REPORTED: 9
//
COMPOUND: O=C1CCC(N2Cc3c(ccc4c3OCC43CCN(C(=O)CN4CCC5(CCN(c6ccc([C@@H]7c8ccc(O)cc8CC[C@@H]7c7ccccc7)cc6)CC5)C4)CC3)C2=O)C(=O)N1 (stereo partly shown)
VALUE_UNITS: %
VALUE_REPORTED: 69
//
COMPOUND: O=C1CCC(N2Cc3cc4c(cc3C2=O)OC2(CC4)CN(C(=O)C3CCC4(CC3)CN(c3ccc([C@@H]5c6ccc(O)cc6CC[C@@H]5c5ccccc5)cc3)C4)C2)C(=O)N1 (stereo partly shown)
VALUE_UNITS: %
VALUE_REPORTED: 9
//
COMPOUND: O=C1CCC(N2C(=O)c3ccc4c(c3C2=O)OCC42CCN(C3CCN(C(=O)C4CCN(c5ccc([C@@H]6c7ccc(O)cc7CC[C@@H]6c6ccccc6)cc5)CC4)CC3)CC2)C(=O)N1 (stereo partly shown)
VALUE_UNITS: %
VALUE_REPORTED: 11

Hey, can you go through the list below and give me Degradation rate (%) of ERα in MCF-7 cells for every item?
1. O=C1CCC(N2Cc3c(ccc4c3OCC43CCN(C(=O)C4CCN(C(=O)C5CCN(c6ccc([C@@H]7c8ccc(O)cc8CC[C@@H]7c7ccccc7)cc6)CC5)CC4)CC3)C2=O)C(=O)N1 (stereo partly shown)
2. CC1Cc2c(ccc3[nH]ncc23)C(c2c(F)cc(N3CCC4(CC3)CC(N3CCC(N5CCC6(CC5)COc5c6ccc6c5CN(C5CCC(=O)NC5=O)C6=O)C(F)C3)C4)cc2F)N1CC(F)F (stereo not shown)
3. O=C1CCC(N2Cc3c(ccc4c3OCC43CCN(C(=O)C4CCN(C5CCN(c6ccc([C@@H]7c8ccc(O)cc8CC[C@@H]7c7ccccc7)cc6)CC5)CC4)CC3)C2=O)C(=O)N1 (stereo partly shown) [H22]
4. O=C1CCC(N2Cc3c(ccc4c3OCC43CCN(C4CC5(C4)CN(C4CCN(c6ccc([C@@H]7c8ccc(O)cc8CC[C@@H]7c7ccccc7)cc6)CC4)C5)CC3)C2=O)C(=O)N1 (stereo partly shown)
5. CN(C(=O)CN1CCC2(CC1)COc1c2ccc2c1C(=O)N(C1CCC(=O)NC1=O)C2=O)C1CCC2(CC1)CN(c1ccc([C@@H]3c4ccc(O)cc4CC[C@@H]3c3ccccc3)cc1)C2 (stereo partly shown)

[20, 50, 32, 3, 1]

###

Please respond with reported Degradation rate (%) of ERα in MCF-7 cells for every item in the list.
# TARGET_UNDER_TEST: ERα (Homo sapiens, UniProt P03372)
# TEST_PROTOCOL: Degradation of ERα in MCF-7 cells (immunoblotting, 4 h)
# Format: cell-based
# ASSAY_CONTEXT: 1nM compound
# Experimental: MCF-7 cells were inoculated into 6-well plates at a density of 3×10^5 cells/well and cultured at 37°C, 5% CO2 for 24h. […] Protein immunoblotting: The total protein concentration in the collected cell lysate supernatant was determined by BCA Protein Concentration Assay Kit (Enhanced) (P0009, Beyotime). […] Protein profiles were analyzed by Image Studio Lite analysis software for grayscale values. […]
Numbers only, in %.

Reference set (2 entries):
MOLECULE: O=C1CCC(N2Cc3c(ccc4c3OCC43CCN(C(=O)CN4CCN(C(=O)C5CCN(c6ccc([C@@H]7c8ccc(O)cc8CC[C@@H]7c7ccccc7)cc6)CC5)CC4)CC3)C2=O)C(=O)N1 (stereo partly drawn)
VALUE_REPORTED: 23
//
MOLECULE: O=C1CCC(N2Cc3c(ccc4c3OCC43CCN(C(=O)CC4CCN(C(=O)C5CCN(c6ccc([C@@H]7c8ccc(O)cc8CC[C@@H]7c7ccccc7)cc6)CC5)CC4)CC3)C2=O)C(=O)N1 (stereo partly drawn)
VALUE_REPORTED: 29

Would you kindly look at the next entry?
For O=C1CCC(N2Cc3cc4c(cc3C2=O)OC2(CC4)CN(C(=O)C3CC4(CCN(c5ccc([C@@H]6c7ccc(O)cc7CC[C@@H]6c6ccccc6)cc5)CC4)C3)C2)C(=O)N1 (stereo partly drawn) , what is its reported Degradation rate (%) of ERα in MCF-7 cells?
9

###

# TARGET_UNDER_TEST: ERα (Homo sapiens)
# TEST_PROTOCOL: Degradation of ERα in T-47D cells (immunoblotting, 4 h)
# Assay type: cell-based
# Design: host or cells: T-47D
# ASSAY_CONTEXT: 1nM compound
I'd appreciate it if you could supply Degradation rate (%) of ERα in T-47D cells values for the items below.
Answers are plain numbers, in %.

COMPOUND: O=C1CCC(N2Cc3ccc4c(c3C2=O)OCC2(CCN(C3CCC5(CC3)CCN(c3ccc([C@@H]6c7ccc(O)cc7CC[C@@H]6c6ccccc6)cc3)CC5)CC2)C4)C(=O)N1 (stereo partly shown)
VALUE_REPORTED: 25
--
COMPOUND: O=C1CCC(N2Cc3c(ccc4c3OCC43CCN(CC(=O)N4CCC5(CC4)CCN(c4ccc([C@@H]6c7ccc(O)cc7CC[C@@H]6c6ccccc6)cc4)C5)CC3)C2=O)C(=O)N1 (stereo partly shown)
VALUE_REPORTED: 39
--
COMPOUND: O=C1CCC(N2Cc3c(ccc4c3OCC43CCN(C(=O)CN4CCC(OC5CCN(c6ccc([C@@H]7c8ccc(O)cc8CC[C@@H]7c7ccccc7)cc6)CC5)CC4)CC3)C2=O)C(=O)N1 (stereo partly shown)
VALUE_REPORTED: 74

Provide reported Degradation rate (%) of ERα in T-47D cells for each item, in the same order as listed.
1. O=C1CCC(N2Cc3c(ccc4c3OCC43CCN(CC(=O)N4CC5(C4)CN(c4ccc([C@@H]6c7ccc(O)cc7CC[C@@H]6c6ccccc6)cc4)C5)CC3)C2=O)C(=O)N1 (stereo partly shown)
2. O=C1CCC(N2Cc3c(ccc4c3OCC43CCN(C4CCN(C(=O)C5CCN(c6ccc([C@@H]7c8ccc(O)cc8CC[C@@H]7c7ccccc7)cc6)CC5)[C@@H](C(=O)N5CCC(F)(F)CC5)C4)CC3)C2=O)C(=O)N1 (stereo partly shown)
3. CN(C(=O)CN1CC2(CCc3cc4c(cc3O2)CN(C2CCC(=O)NC2=O)C4=O)C1)C1CCC2(CC1)CN(c1ccc([C@@H]3c4ccc(O)cc4CC[C@@H]3c3ccccc3)cc1)C2 (stereo partly shown)
4. C[C@@H]1Cc2c([nH]c3ccccc23)[C@@H](c2c(F)cc(N3CCC(N4CC[C@@H](N5CCC6(CC5)COc5c6ccc6c5CN(C5CCC(=O)NC5=O)C6=O)[C@@H](F)C4)CC3)cc2F)N1CC(F)F (stereo partly shown)
5. O=C1CC[C@H](N2Cc3cc(N4CCN(CC5CCN(c6ccc([C@@H]7c8ccc(O)cc8CC[C@@H]7c7ccccc7)cc6)CC5)CC4)ccc3C2=O)C(=O)N1 [ARV-471, reference compound]

[66, 50, 37, 52, 61]

Dear colleague, could you send me Degradation rate (%) of ERα in T-47D cells for each of the items below? Thanks.
1. CCN(CC(=O)N1CCC2(CC1)COc1c2ccc2c1CN(C1CCC(=O)NC1=O)C2=O)CC1CCN(c2ccc([C@@H]3c4ccc(O)cc4CC[C@@H]3c3ccccc3)cc2)CC1 (stereo partly shown)
2. O=C1CCC(N2Cc3c(ccc4c3OCC43CCN(c4ccc(C(=O)N5CCN(c6ccc([C@@H]7c8ccc(O)cc8CC[C@@H]7c7ccccc7)cc6)CC5)cn4)CC3)C2=O)C(=O)N1 (stereo partly shown)

[68, 37]
